Cited source for all entries: BindingDB's records for doi:10.1038/nchembio753

Target: Sonic hedgehog protein (Mus musculus, UniProt Q62226)
Sequence (Q62226 25-198 limits assumed): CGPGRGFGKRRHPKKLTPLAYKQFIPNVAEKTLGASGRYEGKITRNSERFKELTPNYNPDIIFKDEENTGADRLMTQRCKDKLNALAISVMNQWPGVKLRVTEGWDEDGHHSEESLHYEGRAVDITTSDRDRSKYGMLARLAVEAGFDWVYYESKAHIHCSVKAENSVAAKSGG
Experiment: Activation of Shh in mouse Shh Light2 cells after 30 hrs by luciferase reporter gene assay
Quantity measured: EC50

[
  {
    "Sample smiles": "c1ccc2c(Oc3nc(Nc4ccc(N5CCOCC5)cc4)c4ncn(C5CCCCC5)c4n3)cccc2c1",
    "Quantity measured": "EC50",
    "Endpoint value": "1000 nM"
  }
]
